# systemUnderTest: Neuromedin-K receptor (Homo sapiens, UniProt P29371)
# Sequence (P29371 whole entry): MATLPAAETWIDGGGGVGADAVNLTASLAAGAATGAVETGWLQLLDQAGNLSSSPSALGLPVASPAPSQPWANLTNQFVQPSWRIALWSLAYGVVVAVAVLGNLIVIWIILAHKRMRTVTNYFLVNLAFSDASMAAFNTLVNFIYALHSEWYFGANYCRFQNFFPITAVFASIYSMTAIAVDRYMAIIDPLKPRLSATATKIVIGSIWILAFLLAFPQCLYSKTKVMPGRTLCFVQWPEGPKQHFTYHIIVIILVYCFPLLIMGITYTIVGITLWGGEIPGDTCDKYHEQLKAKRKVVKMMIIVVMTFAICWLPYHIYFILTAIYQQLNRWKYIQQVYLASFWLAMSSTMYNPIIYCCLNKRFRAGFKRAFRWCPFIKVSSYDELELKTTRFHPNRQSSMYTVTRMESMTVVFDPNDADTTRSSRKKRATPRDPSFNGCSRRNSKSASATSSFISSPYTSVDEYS
pKi: −log10 of the molar value.
measuredAttribute: pKi

molecule	reading
CC(C)Oc1cccc(CC(=O)N2CCC[C@](CC[N+]34CCC(c5ccccc5)(CC3)CC4)(c3ccc(Cl)c(Cl)c3)C2)c1	5.97
CC(=O)NC1(c2ccccc2)CCN(CCC(CN(C)C(=O)c2ccccc2)c2ccc(Cl)c(Cl)c2)CC1 (configuration not stated)	6.43
